Collected from the literature: Ki of various compounds toward Prothrombin (Homo sapiens, UniProt P00734).

Consider the worked cases shown below.
compound="CCOC(=O)C(CCc1cccc(C(=N)N)c1)Cn1cnc2cc(C(=N)N)ccc21 (stereo not drawn)" readout=Ki result_value="2000 nM"
compound=N=C(N)c1cccc(C(=O)N[C@@H](C(=O)N2CCN(c3ccc(Cl)cc3)CC2)c2ccccc2)c1 readout=Ki result_value="1600 nM"
compound=N=C(N)N1CCC(CC(=O)N2CCN(C(=O)O[C@H]3CCC[C@@H](OC(=O)N4CCN(C(=O)CC5CCN(C(=N)N)CC5)CC4)CCC3)CC2)CC1 readout=Ki result_value="130000 nM"

Q. I have this compound here, `CCOC(=O)CN(C)Cc1csc(C(=O)Nc2ccc(Cl)cc2C(=O)Nc2ccc(Cl)cc2)c1Cl` , and I need its recorded Ki.
A. 2300 nM

Q. Fill blank: measured Ki of the compound `Cc1cnc(NCCc2ccccc2)c(=O)n1CC(=O)NCc1ccc2[nH]nnc2c1` is ____.
A. 224 nM

Q. # get_value(readout='Ki', item= `O=C([C@H](Cc1ccc(O)cc1)NS(=O)(=O)c1cnccc1N[C@H](CO)Cc1ccccc1)N1CCC(CCF)CC1` )
A. 41 nM

Q. Which Ki is reported for this compound? `O=C(Cn1ccnc(NCC(F)(F)c2cccc[n+]2[O-])c1=O)NCc1cc(Cl)ccc1-n1cnnn1`
A. 0.013 nM

Q. Name the recorded Ki for CC(=N)N1CCC(N(CC(C)C(=O)O)c2ccc3c(c2)nc(C)n3Cc2ccc3ccc(C(=N)N)cc3c2)CC1 (stereo not drawn) .
A. 5000 nM
